- System: Puccinia recondita tritici
- PROTOCOL DESCRIPTION: Leaf Rust of Wheat (PUCCRT), whole-plant fungicide test
- Type: in vivo
- TEST CONDITIONS: Puccinia recondita, foliar, 24 h, 200 ppm on foliage, one-day protectant test, read-out: PUCCRT percent control of disease
Hi there, I'd appreciate the recorded pest or weed control at 200 ppm for every entry that follows.

Sure, the documented pest or weed control at 200 ppm for COc1ccc(C(C)Nc2ncnc3scc(Br)c23)cn1 (stereo not shown) is 80 to 100%

Sure, the documented pest or weed control at 200 ppm for CC(Nc1ncnc2scc(Cl)c12)c1cccn1C (stereo not shown) is 0 to 49%

Sure, the documented pest or weed control at 200 ppm for CC(Nc1ncnc2scc(Br)c12)c1ccc(F)nc1 (stereo not shown) is 80 to 100%

Sure, the documented pest or weed control at 200 ppm for CC(Nc1ncnc2scc(Cl)c12)c1ccn(C)c1 (stereo not shown) is 50 to 79%

Sure, the documented pest or weed control at 200 ppm for CC(Nc1ncnc2scc(Cl)c12)c1cnc(OCC(F)(F)F)nc1 (stereo not shown) is 80 to 100%

Sure, the documented pest or weed control at 200 ppm for COCc1ccc(C(C)Nc2ncnc3scc(Cl)c23)cc1 (stereo not shown) is 80 to 100%

Sure, the documented pest or weed control at 200 ppm for COc1ccc(C(C)Nc2ncnc3scc(C#N)c23)cc1 (stereo not shown) is 80 to 100%

Sure, the documented pest or weed control at 200 ppm for CSc1ccc(C(C)Nc2ncnc3scc(Cl)c23)cc1 (stereo not shown) is 80 to 100%

Sure, the documented pest or weed control at 200 ppm for CC(Nc1ncnc2scc(Cl)c12)c1ccc(F)nc1 (stereo not shown) is 80 to 100%

Sure, the documented pest or weed control at 200 ppm for CC(Nc1ncnc2scc(Br)c12)c1cnc(OCC(F)(F)F)nc1 (stereo not shown) is 80 to 100%

* * *

Hi there, I'd appreciate the recorded pest or weed control at 200 ppm for every entry that follows.
- System: Puccinia recondita tritici
- PROTOCOL DESCRIPTION: Leaf Rust of Wheat (PUCCRT), whole-plant fungicide test
- Type: in vivo
- TEST CONDITIONS: Puccinia recondita, foliar, 24 h, 200 ppm on foliage, one-day protectant test, read-out: PUCCRT percent control of disease

Sure, the documented pest or weed control at 200 ppm for CC(Nc1ncnc2scc(Cl)c12)c1ccc2c(c1)OCO2 (stereo not shown) [Compound 61] is 80 to 100%

Sure, the documented pest or weed control at 200 ppm for CC(Nc1ncnc2scc(Cl)c12)c1cc[nH]c1 (stereo not shown) [Compound 15] is 80 to 100%

Sure, the documented pest or weed control at 200 ppm for CCC(Nc1ncnc2scc(Cl)c12)c1ccc(OC)nc1 (stereo not shown) [Compound 79] is 80 to 100%

Sure, the documented pest or weed control at 200 ppm for COc1ccc(C(C)Nc2ncnc3scc(Cl)c23)cc1F (stereo not shown) [Compound 66] is 80 to 100%

Sure, the documented pest or weed control at 200 ppm for CC(Nc1ncnc2scc(Cl)c12)c1ccc(OCC(F)F)nc1 (stereo not shown) [Compound 74] is 80 to 100%

Sure, the documented pest or weed control at 200 ppm for CC(Nc1ncnc2scc(Cl)c12)c1ccc(OCC(F)(F)F)nc1 (stereo not shown) [Compound 38] is 80 to 100%

Sure, the documented pest or weed control at 200 ppm for CCOC(=O)c1sc2ncnc(NC(C)c3ccc(OC)cc3)c2c1OC (stereo not shown) [Compound 51] is 0 to 49%

Sure, the documented pest or weed control at 200 ppm for CC(COc1ccccn1)Nc1ncnc2scc(Cl)c12 (stereo not shown) [Compound 37] is 80 to 100%

Sure, the documented pest or weed control at 200 ppm for CCOc1csc2ncnc(NC(C)c3ccc(OC)nc3)c12 (stereo not shown) [Compound 46] is 80 to 100%

Sure, the documented pest or weed control at 200 ppm for COc1ccc(OCCNc2ncnc3scc(Cl)c23)cc1 [Compound 64] is 80 to 100%

* * *

- Test system: Erysiphe cichoracaerum
- PROTOCOL DESCRIPTION: Cucumber Powdery Mildew (ERYSCI), whole-plant fungicide test
- Type: in vivo
- TEST CONDITIONS: Erysiphe, foliar, 24 h, 200 ppm on foliage, one-day protectant test, read-out: ERYSCI percent control of disease
ASSAY ENDPOINT: pest or weed control at 200 ppm

Sure, the documented pest or weed control at 200 ppm for COc1ccc(C(C)Nc2ncnc3scc(SC)c23)cc1 (stereo not shown) is 0 to 49%

Sure, the documented pest or weed control at 200 ppm for OCC(Cc1ccccc1)Nc1ncnc2scc(Cl)c12 (stereo not shown) is 80 to 100%

Sure, the documented pest or weed control at 200 ppm for CC(C)(C)OC(=O)Nc1ccc(CCNc2ncnc3scc(Cl)c23)cc1 [Compound 10a] is 0 to 49%

Sure, the documented pest or weed control at 200 ppm for COc1cnc(C(C)Nc2ncnc3scc(Cl)c23)nc1 (stereo not shown) is 0 to 49%

Sure, the documented pest or weed control at 200 ppm for O[C@@H](CNc1ncnc2scc(Cl)c12)c1ccccc1 is 0 to 49%

Sure, the documented pest or weed control at 200 ppm for CC(Nc1ncnc2scc(Cl)c12)c1ccc(OCc2ccccc2)cn1 (stereo not shown) is 50 to 79%

Sure, the documented pest or weed control at 200 ppm for Clc1csc2ncnc(N3CCOCC3c3ccccc3)c12 (stereo not shown) is 0 to 49%

Sure, the documented pest or weed control at 200 ppm for CC(Nc1ncnc2scc(Cl)c12)c1nc2ccccc2s1 (stereo not shown) is 80 to 100%

Sure, the documented pest or weed control at 200 ppm for COc1ccc(C(C)Nc2ncnc3scc(I)c23)cc1 (stereo not shown) is 0 to 49%

Sure, the documented pest or weed control at 200 ppm for COc1ccc(C(C)Nc2ncnc3sc([N+](=O)[O-])cc23)cc1 (stereo not shown) is 0 to 49%

Sure, the documented pest or weed control at 200 ppm for CC(=O)COc1ccc(CCNc2ncnc3scc(Cl)c23)cc1 is 0 to 49%

Sure, the documented pest or weed control at 200 ppm for CC(Nc1ncnc2scc(Cl)c12)c1ccc(C(F)(F)F)cn1 (stereo not shown) is 0 to 49%

Sure, the documented pest or weed control at 200 ppm for CC(Nc1ncnc2scc(Cl)c12)c1ccc[nH]1 (stereo not shown) is 0 to 49%

Sure, the documented pest or weed control at 200 ppm for CC(Nc1ncnc2scc(Cl)c12)c1cccnc1Cl (stereo not shown) is 80 to 100%

Sure, the documented pest or weed control at 200 ppm for CC(Nc1ncnc2scc(Cl)c12)c1cccc2ccccc12 (stereo not shown) is 80 to 100%

Sure, the documented pest or weed control at 200 ppm for CC(Nc1ncnc2scc(Cl)c12)C1CC1COCC(F)(F)F (stereo not shown) is 80 to 100%

Sure, the documented pest or weed control at 200 ppm for CC(Nc1ncnc2scc(Cl)c12)c1ccc(OCl)nc1 (stereo not shown) is 80 to 100%

Sure, the documented pest or weed control at 200 ppm for CC(C)c1ccc(CCNc2ncnc3scc(Cl)c23)cc1 is 80 to 100%

Sure, the documented pest or weed control at 200 ppm for Clc1csc2ncnc(NC3CCc4ccccc43)c12 (stereo not shown) is 0 to 49%

Sure, the documented pest or weed control at 200 ppm for COc1ccc(C(C)Nc2ncnc3sc(Br)cc23)cc1 (stereo not shown) is 0 to 49%

Sure, the documented pest or weed control at 200 ppm for CC(COc1ccc(C(F)(F)F)cn1)Nc1ncnc2scc(Cl)c12 (stereo not shown) is 80 to 100%

Sure, the documented pest or weed control at 200 ppm for Clc1ccc(CCNc2ncnc3scc(Cl)c23)cn1 is 80 to 100%

Sure, the documented pest or weed control at 200 ppm for O=C(Oc1ccc(CCNc2ncnc3scc(Cl)c23)cc1)C1(F)C(F)(F)C(F)(F)C(F)(F)C(F)(F)C1(F)F is 0 to 49%

Sure, the documented pest or weed control at 200 ppm for CC(Nc1ncnc2scc(Cl)c12)c1ccn(C)c1 (stereo not shown) is 0 to 49%

Sure, the documented pest or weed control at 200 ppm for COc1ccc(C(C)Nc2ncnc3scc(Cl)c23)cc1C (stereo not shown) is 80 to 100%

Sure, the documented pest or weed control at 200 ppm for CC(Nc1ncnc2scc(Cl)c12)c1ccc(OCc2ccc(OC(F)(F)F)cc2)cc1 (stereo not shown) is 80 to 100%

Sure, the documented pest or weed control at 200 ppm for CC(Nc1ncnc2scc(Cl)c12)c1nccs1 (stereo not shown) is 80 to 100%

Sure, the documented pest or weed control at 200 ppm for FC(F)(F)Oc1ccc(COc2ccc(CCNc3ncnc4scc(Cl)c34)cc2)cc1 is 80 to 100%

Sure, the documented pest or weed control at 200 ppm for CCOc1csc2ncnc(NC(C)c3ccc(OC)nc3)c12 (stereo not shown) is 50 to 79%

Sure, the documented pest or weed control at 200 ppm for CC(Nc1ncnc2scc(Cl)c12)c1ccc(C(C)(C)C)cc1 (stereo not shown) is 80 to 100%

Sure, the documented pest or weed control at 200 ppm for COc1ccc(OCCNc2ncnc3scc(Cl)c23)cc1 is 0 to 49%

Sure, the documented pest or weed control at 200 ppm for COc1ccc(C(C)Nc2ncnc3scc(Br)c23)cn1 (stereo not shown) is 80 to 100%

Sure, the documented pest or weed control at 200 ppm for COCC(Nc1ncnc2scc(Cl)c12)c1ccccc1 (stereo not shown) is 80 to 100%

Sure, the documented pest or weed control at 200 ppm for Clc1csc2ncnc(NC3CCCc4ccccc43)c12 (stereo not shown) is 0 to 49%

Sure, the documented pest or weed control at 200 ppm for Clc1csc2ncnc(NCCc3ccc4ccccc4c3)c12 is 80 to 100%

Sure, the documented pest or weed control at 200 ppm for COC(=O)c1ccc(CNc2ncnc3scc(Cl)c23)cc1 is 0 to 49%

Sure, the documented pest or weed control at 200 ppm for CC(COc1cccc(Cl)n1)Nc1ncnc2scc(Cl)c12 (stereo not shown) is 50 to 79%

Sure, the documented pest or weed control at 200 ppm for CC(Nc1ncnc2scc(Cl)c12)c1ccc2c(c1)OCO2 (stereo not shown) is 80 to 100%

Sure, the documented pest or weed control at 200 ppm for COc1ccc(C(C)Nc2ncnc3scc(Cl)c23)cc1F (stereo not shown) is 80 to 100%

Sure, the documented pest or weed control at 200 ppm for COc1ccc(COCC2CC2C(C)Nc2ncnc3scc(Cl)c23)cc1 (stereo not shown) is 80 to 100%
